Provide the reported Primary irritation score, Total of each item.
- Tested on: eye (cornea, iris, conjunctiva)
- method_summary: primary eye irritation (Draize) in rabbits
- Type: in vivo, white native male rabbits
- test_settings: 2.4% soln; 3 hours; average of three rabbits

{"compound": "CCCCCCCCC1(CCCCCCCC)OCC(COC(=O)C2CCC(=O)N2)O1 (stereo not drawn) [Compound (214)]", "Primary irritation score, Total": 2.0}
{"compound": "CCCCCCCCCCCCOS(=O)(=O)[O-].[Na+] [Sodium Laurylsulfate, sodium laurylsulfate, reference compound]", "Primary irritation score, Total": 12.7}
{"compound": "CCC=CCCCCCCCCOCC(O)COC(=O)[C@@H]1CCC(=O)N1 (stereo partly drawn) [Compound (134)]", "Primary irritation score, Total": 1.3}
{"compound": "CCCCCCCC/C=C\\CCCCCCCC(=O)OCC(O)COC(=O)[C@@H]1CCC(=O)N1 (stereo partly drawn) [Compound (168)]", "Primary irritation score, Total": 2.0}
{"compound": "CCCCCCCC(=O)OCC(COC(=O)[C@@H]1CCC(=O)N1)OC(=O)CCCCCCC (stereo partly drawn) [Compound (162)]", "Primary irritation score, Total": 2.0}

Consider the additional compound presented here.
Item: CCCCCCCCCCCC(=O)OCC(O)COC(=O)[C@@H]1CCC(=O)N1 (stereo partly drawn) [Compound (172)] | System: eye (cornea, iris, conjunctiva) | Primary irritation score, Total: 2.0

---

- method_summary: diffusion of drug through egg shell membrane in diffusion cell
- Format: in vitro ADME
assay_metric: Relative amount of the drug diffused
Answers are plain numbers.

Recorded results for 2 compounds are shown here.
{"compound": "Cc1ccc(Cl)c(OCC(O)CNC(C)(C)C)c1 (stereo not drawn)", "Relative amount of the drug diffused": 141}
{"compound": "CN1C(C(=O)Nc2ccccn2)=C(O)c2ccccc2S1(=O)=O", "Relative amount of the drug diffused": 177}

Lab note: `Nc1ccc(C(=O)O)cc1` gave Relative amount of the drug diffused of 122

---

- Tested on: eye (cornea, iris, conjunctiva)
- method_summary: primary eye irritation (Draize) in rabbits
- Type: in vivo, white native male rabbits
- test_settings: 2.4% soln; 168 hours; average of three rabbits
assay_metric: Primary irritation score, Conjunctiva
Answers are plain numbers.

Give measured Primary irritation score, Conjunctiva for every item shown.
1. CCCCCCCCCCCC(=O)OCC(O)COC(=O)[C@@H]1CCC(=O)N1 (stereo partly drawn) [Compound (172)]
2. CCCCCCCC(=O)OCC(COC(=O)[C@@H]1CCC(=O)N1)OC(=O)CCCCCCC (stereo partly drawn) [Compound (162)]
3. CCC=CCCCCCCCCOCC(O)COC(=O)[C@@H]1CCC(=O)N1 (stereo partly drawn) [Compound (134)]
4. CCCCCCCC/C=C\CCCCCCCC(=O)OCC(O)COC(=O)[C@@H]1CCC(=O)N1 (stereo partly drawn) [Compound (168)]

1. 0
2. 0
3. 0
4. 0

Need Primary irritation score, Conjunctiva for each of these compounds.
1. CCCCCCCCC1(CCCCCCCC)OCC(COC(=O)C2CCC(=O)N2)O1 (stereo not drawn) [Compound (214)]
2. CCCCCCCCCCCCOS(=O)(=O)[O-].[Na+] [Sodium Laurylsulfate, sodium laurylsulfate, reference compound]

1. 0
2. 0.7

---

- Test system: eye (cornea, iris, conjunctiva)
- method_summary: primary eye irritation (Draize) in rabbits
- Format: in vivo, white native male rabbits
- test_settings: 2.4% soln; 6 hours; average of three rabbits
Task for the reader: assign each of the following compounds its reported Primary irritation score, Total.
Answers are plain numbers.

For orientation, consider the following solved cases.
{"compound": "CCCCCCCCCCCCOS(=O)(=O)[O-].[Na+] [Sodium Laurylsulfate, sodium laurylsulfate, reference compound]", "recorded_value": 11.3}
{"compound": "CCCCCCCC/C=C\\CCCCCCCC(=O)OCC(O)COC(=O)[C@@H]1CCC(=O)N1 (stereo partly drawn)", "recorded_value": 1.3}
{"compound": "CCC=CCCCCCCCCOCC(O)COC(=O)[C@@H]1CCC(=O)N1 (stereo partly drawn)", "recorded_value": 1.3}
{"compound": "CCCCCCCCCCCC(=O)OCC(O)COC(=O)[C@@H]1CCC(=O)N1 (stereo partly drawn)", "recorded_value": 1.3}
{"compound": "CCCCCCCCC1(CCCCCCCC)OCC(COC(=O)C2CCC(=O)N2)O1 (stereo not drawn)", "recorded_value": 2.0}

Turning now to a further compound:
For CCCCCCCC(=O)OCC(COC(=O)[C@@H]1CCC(=O)N1)OC(=O)CCCCCCC (stereo partly drawn) the compound record lists Primary irritation score, Total as 2.0

---

Exercise: for every item that follows, state its recorded Relative amount of the drug diffused.
- method_summary: diffusion of drug through egg shell membrane in diffusion cell
- Format: in vitro ADME
- test_settings: 30 minutes; drug 0.05% with compound (168) 1.0% on donor side; drug alone = 100; 37° C.
Answers are plain numbers.

Solved cases below.
{"molecule": "C[C@](N)(Cc1ccc(O)c(O)c1)C(=O)O [Methyldopa]", "Relative amount of the drug diffused": 137}
{"molecule": "CC(=O)OCC1=C(C(=O)O)N2C(=O)[C@@H](NC(=O)Cc3cccs3)[C@H]2SC1 [Cephalothin]", "Relative amount of the drug diffused": 139}
{"molecule": "CC1(C)O[C@@H]2C[C@H]3[C@@H]4CCC5=CC(=O)C=C[C@]5(C)[C@@]4(F)[C@@H](O)C[C@]3(C)[C@]2(C(=O)CO)O1 [Triamcinolone acetonide]", "Relative amount of the drug diffused": 214}
{"molecule": "CCN(CC)CCOC(=O)c1ccc(N)cc1 [Procaine]", "Relative amount of the drug diffused": 149}

Field: next molecule
Notebook: CN1C(=O)CN=C(c2ccccc2)c2cc(Cl)ccc21 [Diazepam] , Relative amount of the drug diffused read as 144

---

- Test system: eye (cornea, iris, conjunctiva)
- method_summary: primary eye irritation (Draize) in rabbits
- Assay type: in vivo, white native male rabbits
- test_settings: 2.4% soln; 168 hours; average of three rabbits
assay_metric: Primary irritation score, Total
Give bare numbers.

Report Primary irritation score, Total for each item below.
1. CCCCCCCC(=O)OCC(COC(=O)[C@@H]1CCC(=O)N1)OC(=O)CCCCCCC (stereo partly drawn)
2. CCCCCCCCC1(CCCCCCCC)OCC(COC(=O)C2CCC(=O)N2)O1 (stereo not drawn)
3. CCCCCCCC/C=C\CCCCCCCC(=O)OCC(O)COC(=O)[C@@H]1CCC(=O)N1 (stereo partly drawn)
4. CCC=CCCCCCCCCOCC(O)COC(=O)[C@@H]1CCC(=O)N1 (stereo partly drawn)

[0, 0, 0, 0]

Batch request: Primary irritation score, Total per item, same order as input.
1. CCCCCCCCCCCC(=O)OCC(O)COC(=O)[C@@H]1CCC(=O)N1 (stereo partly drawn)
2. CCCCCCCCCCCCOS(=O)(=O)[O-].[Na+] [Sodium Laurylsulfate, sodium laurylsulfate, reference compound]

0
0.7

---

- Tested on: eye (cornea, iris, conjunctiva)
- method_summary: primary eye irritation (Draize) in rabbits
- Format: in vivo, white native male rabbits
- test_settings: 2.4% soln; 1 hour; average of three rabbits
For each of the compounds below, state its Primary irritation score, Total.
Answers are plain numbers.

{"compound": "CCC=CCCCCCCCCOCC(O)COC(=O)[C@@H]1CCC(=O)N1 (stereo partly drawn)", "tgt": "eye (cornea, iris, conjunctiva)", "assay_metric": "Primary irritation score, Total", "recorded_value": 3.3}
{"compound": "CCCCCCCCC1(CCCCCCCC)OCC(COC(=O)C2CCC(=O)N2)O1 (stereo not drawn)", "tgt": "eye (cornea, iris, conjunctiva)", "assay_metric": "Primary irritation score, Total", "recorded_value": 2.0}
{"compound": "CCCCCCCC(=O)OCC(COC(=O)[C@@H]1CCC(=O)N1)OC(=O)CCCCCCC (stereo partly drawn)", "tgt": "eye (cornea, iris, conjunctiva)", "assay_metric": "Primary irritation score, Total", "recorded_value": 3.3}
{"compound": "CCCCCCCCCCCC(=O)OCC(O)COC(=O)[C@@H]1CCC(=O)N1 (stereo partly drawn)", "tgt": "eye (cornea, iris, conjunctiva)", "assay_metric": "Primary irritation score, Total", "recorded_value": 3.3}
{"compound": "CCCCCCCC/C=C\\CCCCCCCC(=O)OCC(O)COC(=O)[C@@H]1CCC(=O)N1 (stereo partly drawn)", "tgt": "eye (cornea, iris, conjunctiva)", "assay_metric": "Primary irritation score, Total", "recorded_value": 2.0}

Now for another entry.
Field Primary irritation score, Total (entry CCCCCCCCCCCCOS(=O)(=O)[O-].[Na+] [Sodium Laurylsulfate, sodium laurylsulfate, reference compound] ) reads 18.3

---

Task for the reader: assign each of the following compounds its reported Primary irritation score, Cornea.
- Test system: eye (cornea, iris, conjunctiva)
- method_summary: primary eye irritation (Draize) in rabbits
- Type: in vivo, white native male rabbits
- test_settings: 2.4% soln; 96 hours; average of three rabbits
Answers are plain numbers.

Reference set, count: 5
{"compound": "CCCCCCCCCCCC(=O)OCC(O)COC(=O)[C@@H]1CCC(=O)N1 (stereo partly drawn) [Compound (172)]", "tgt": "eye (cornea, iris, conjunctiva)", "Primary irritation score, Cornea": 0}
{"compound": "CCCCCCCCC1(CCCCCCCC)OCC(COC(=O)C2CCC(=O)N2)O1 (stereo not drawn) [Compound (214)]", "tgt": "eye (cornea, iris, conjunctiva)", "Primary irritation score, Cornea": 0}
{"compound": "CCCCCCCC(=O)OCC(COC(=O)[C@@H]1CCC(=O)N1)OC(=O)CCCCCCC (stereo partly drawn) [Compound (162)]", "tgt": "eye (cornea, iris, conjunctiva)", "Primary irritation score, Cornea": 0}
{"compound": "CCC=CCCCCCCCCOCC(O)COC(=O)[C@@H]1CCC(=O)N1 (stereo partly drawn) [Compound (134)]", "tgt": "eye (cornea, iris, conjunctiva)", "Primary irritation score, Cornea": 0}
{"compound": "CCCCCCCC/C=C\\CCCCCCCC(=O)OCC(O)COC(=O)[C@@H]1CCC(=O)N1 (stereo partly drawn) [Compound (168)]", "tgt": "eye (cornea, iris, conjunctiva)", "Primary irritation score, Cornea": 0}

Kindly review the next compound as well.
// CCCCCCCCCCCCOS(=O)(=O)[O-].[Na+] [Sodium Laurylsulfate, sodium laurylsulfate, reference compound] : Primary irritation score, Cornea value = 0
